Target: Nociceptin receptor (Homo sapiens)
Sequence (P41146 whole entry): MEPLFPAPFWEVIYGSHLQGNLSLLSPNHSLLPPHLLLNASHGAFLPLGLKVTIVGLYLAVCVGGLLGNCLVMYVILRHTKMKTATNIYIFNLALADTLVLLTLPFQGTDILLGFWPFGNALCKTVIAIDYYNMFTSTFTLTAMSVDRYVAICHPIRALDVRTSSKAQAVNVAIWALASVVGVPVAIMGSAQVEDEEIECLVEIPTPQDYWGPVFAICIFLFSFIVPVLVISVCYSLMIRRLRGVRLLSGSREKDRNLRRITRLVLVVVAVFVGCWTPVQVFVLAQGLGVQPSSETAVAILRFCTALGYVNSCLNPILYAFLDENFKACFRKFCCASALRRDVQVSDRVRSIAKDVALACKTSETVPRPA
Test: Cell-Based NOP Assay: Formula (I) compounds were tested for antagonism of the nociceptin receptor (NOP) in a cell-based cAMP assay, using the LANCE cAMP Detection Kit, Perkin Elmer (Waltham, Mass.). This assay (LANCE cAMP) is a homogeneous, time-resolved fluorescence resonance energy transfer (TR-FRET) immunoassay designed to measure cAMP produced upon modulation of adenylyl cyclase activity by G protein-coupled receptors (GPCRs).ProtocolCells expressing human opioid NOP (ValiScreen cell line, cat #ES-230-C Perkin Elmer (Waltham, Mass.) were dispensed in simulation buffer (5 mM Hepes, 0.1% BSA, 0.5 mM IBMX in Hanks Buffered Saline Solution) at 2.5 μL cells per well (400 cells/well) into a 1536 white TC-treated assay plate. Compound was then added and plates were incubated for 15 minutes at room temperature. To each well was added 2.5 μL of a solution containing forskolin (3 μM final) and nociceptin peptide (390 pM final) diluted in stimulation buffer, and the plates were incubated for 30 minutes at room temperature. To each well was dispensed 5 μL of LANCE Ultra detection (1:300 dilution of anti-cAMP ULight with a 1:100 dilution of Eu-cAMP tracer diluted in cAMP Detection Buffer) reagent, and the plates were incubated for 1 hr at room temperature. The plate was then read on the ViewLux microplate reader (Perkin Elmer, Waltham, Mass.) using the LANCE 1536 protocol with 60 second exposure times and 50 μs delay. This protocol has an excitation wavelength of 340 nm (DUG11 filter) and emission wavelengths of 615 nm (Eu-Donor) and 665 nm (Alexa 647 cAMP antibody acceptor).Data AnalysisData was analyzed, normalized, and visualized using ACAS (John McNeil & Co.). Efficacy was calculated using activity of the vehicle (DMSO) as 0% efficacy and the activity of the corresponding reference positive control (SCH 221510, Tocris Bioscience (Pittsburgh, Pa.), Catalog number 3240) as 100% efficacy. Activity was calculated as the ratio of donor and acceptor emissions. All curve fits and IC50 determinations were performed using a non-linear regression model. The IC50 value was measured as the concentration at which half-maximal response was calculated.
pIC50: −log10 of the molar value.
measured.attribute: pIC50

Determine its reported pIC50: Fc1ccc(Cl)c(C2CCC(CCNC3CCCC3)CC2)c1 (configuration not stated)
7.00 to 8.00

Determine its reported pIC50: `CN(C)C(=O)C1(NCC[C@H]2CC[C@@H](c3ccc(F)cc3Cl)CC2)CCCC1`
6.00 to 7.00

Determine its reported pIC50: Clc1ccccc1C1CCC(CCNC2CCOCC2)CC1 (configuration not stated)
8.00 to 9.00

Determine its reported pIC50: `O=C1C[C@@H](NCC[C@H]2CC[C@H](c3ncc(F)cc3Cl)CC2)CCN1`
6.00 to 7.00

Determine its reported pIC50: Cc1cccnc1C1CCC(CCNC2(C)CCCC2)CC1 (configuration not stated)
6.00 to 7.00

Determine its reported pIC50: Fc1cccc(C2CCC(CCNC3CCCCC3)CC2)c1Cl (configuration not stated)
7.00 to 8.00

Determine its reported pIC50: `NC(=O)C1(NCC[C@H]2CC[C@@H](c3c(F)cc(F)cc3F)CC2)CCOCC1`
6.00 to 7.00

Determine its reported pIC50: COCC1(NCCC2CCC(c3cc(F)ccc3Cl)CC2)CCOCC1 (configuration not stated)
7.00 to 8.00

Determine its reported pIC50: `Fc1cccc(Cl)c1[C@H]1CC[C@H](CCNC2CCOCC2)CC1`
8.00 to 9.00

Determine its reported pIC50: `COCC1(NCC[C@H]2CC[C@@H](c3ccc(F)cc3Cl)CC2)CCOCC1`
8.00 to 9.00

Determine its reported pIC50: `CCNC(=O)C1(NCC[C@H]2CC[C@@H](c3ccc(F)cc3C(F)(F)F)CC2)CCOCC1`
8.00 to 9.00

Determine its reported pIC50: O=C1CC(NCC[C@H]2CC[C@@H](c3ccc(F)cc3Cl)CC2)CCN1 (some centres not stated)
> 9.00

Determine its reported pIC50: `Fc1cccc(Cl)c1[C@H]1CC[C@@H](CCNC2CCOCC2)CC1`
> 9.00

Determine its reported pIC50: Fc1ccc(C2CCC(CCN[C@H]3CC[C@@H](F)C3)CC2)c(Cl)c1 (some centres not stated)
> 9.00

Determine its reported pIC50: `NC(=O)C1(NCC[C@H]2CC[C@@H](c3ncccc3Cl)CC2)CCOCC1`
6.00 to 7.00

Determine its reported pIC50: `Cc1cc(F)ccc1[C@H]1CC[C@@H](CCNC2CCOCC2)CC1`
> 9.00

Determine its reported pIC50: Fc1cc(Cl)ccc1C1CCC(CCNC2CCOCC2)CC1 (configuration not stated)
8.00 to 9.00
